Recorded below: AC50, system Muscarinic acetylcholine receptor M2 (Homo sapiens). Also: assay procedure not described here.

{"columns": ["compound", "measurementType", "result"],
 "data": [
  ["O=[N+]([O-])c1cn2c(n1)OC[C@@H](OCc1ccc(OC(F)(F)F)cc1)C2 [PRETOMANID]", "AC50", "> 30 µM"],
  ["CCOc1ccc(Cc2cc([C@@H]3O[C@H](CO)[C@@H](O)[C@H](O)[C@H]3O)ccc2Cl)cc1 [DAPAGLIFLOZIN]", "AC50", "> 30 µM"],
  ["Cc1cc(OP(=O)(O)O)c2ccccc2c1OP(=O)(O)O [MENADIOL SODIUM DIPHOSPHATE]", "AC50", "> 30 µM"]
]}

Reading of AC50 for `OC(c1ccccc1)(c1ccccc1)C12CC[N+](CCOCc3ccccc3)(CC1)CC2` with Muscarinic acetylcholine receptor M2 (Homo sapiens): 0.0044 µM

Item: O=C(O)c1cc(O)ccc1O [GENTISIC ACID] | System: Muscarinic acetylcholine receptor M2 (Homo sapiens) | AC50: > 30 µM

Muscarinic acetylcholine receptor M2 (Homo sapiens) AC50 of `CCC(CC)(CC(=O)Nc1cccc(/C=C/c2nc(C3CCC3)cs2)c1)C(=O)O` is > 30 µM

# AC50 measured on Muscarinic acetylcholine receptor M2 (Homo sapiens) for item Clc1ccc(C(OCCN2CCCCC2)c2ccccc2)cc1 (centres undefined) [CLOPERASTINE] = 0.331 µM

Short answer on Muscarinic acetylcholine receptor M2 (Homo sapiens) for OC[C@@H](O)[C@H](O)[C@@H](O)CO [XYLITOL] , AC50: > 30 µM

GET /values?item= CN1CCN(C2=Nc3ccccc3Sc3ccc(Cl)cc32)CC1 [CLOTHIAPINE] &system= Muscarinic acetylcholine receptor M2 (Homo sapiens) returns AC50: 0.52 µM
